- target.under.test: human RXFP1 (Homo sapiens, UniProt Q9HBX9)
- Sequence (Q9HBX9 1-757): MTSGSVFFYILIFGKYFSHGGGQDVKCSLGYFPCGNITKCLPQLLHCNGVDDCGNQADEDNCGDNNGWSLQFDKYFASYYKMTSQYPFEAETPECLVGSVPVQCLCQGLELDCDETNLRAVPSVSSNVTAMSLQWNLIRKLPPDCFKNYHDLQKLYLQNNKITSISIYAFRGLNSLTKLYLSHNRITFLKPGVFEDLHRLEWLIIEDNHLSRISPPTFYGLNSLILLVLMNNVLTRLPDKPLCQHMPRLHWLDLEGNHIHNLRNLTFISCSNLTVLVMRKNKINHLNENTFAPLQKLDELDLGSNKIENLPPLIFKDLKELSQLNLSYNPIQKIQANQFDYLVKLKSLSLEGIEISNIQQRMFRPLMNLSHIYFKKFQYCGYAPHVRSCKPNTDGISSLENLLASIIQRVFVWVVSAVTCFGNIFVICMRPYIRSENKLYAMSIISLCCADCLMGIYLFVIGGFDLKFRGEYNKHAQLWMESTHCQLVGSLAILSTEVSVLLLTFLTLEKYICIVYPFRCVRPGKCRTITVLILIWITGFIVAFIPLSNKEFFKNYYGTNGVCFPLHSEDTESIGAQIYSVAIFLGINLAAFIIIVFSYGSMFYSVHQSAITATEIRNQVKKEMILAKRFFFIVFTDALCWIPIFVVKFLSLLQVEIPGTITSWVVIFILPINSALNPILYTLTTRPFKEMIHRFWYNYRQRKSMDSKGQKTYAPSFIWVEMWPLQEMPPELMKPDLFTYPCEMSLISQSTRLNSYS
- assay.method.text: human RXFP1 (hRXFP1) HEK293 cAMP assay (HTRF)
- assay.context: HEK293 cells stably expressing human RXFP1, 30 min at room temperature
pEC50: −log10 of the molar value.
Given measured pEC50, output Yes if it is greater than or equal to 7 and No if not.

Solved entries (count: 8):
[
  {
    "molecule": "COc1ncc(C2=NOC3CC(C(O)C(F)(F)F)CC23)cc1C(=O)N[C@H]1[C@@H](C(=O)N[C@H](C)C2(C)CC2)[C@H]2CC[C@@H]1/C2=C\\C1CC(F)(F)C1 (some centres unmarked)",
    "target.under.test": "human RXFP1 (Homo sapiens, UniProt Q9HBX9)",
    "category.label": "Yes"
  },
  {
    "molecule": "COc1ncc(-c2cc([C@H](OC(=O)Nc3ccccc3)C(F)(F)F)ccc2F)cc1C(=O)N[C@@H]1C2CCC(/C2=C/C2CC2)[C@@H]1C(=O)Nc1ccc(F)c(C(F)(F)F)c1 (some centres unmarked)",
    "target.under.test": "human RXFP1 (Homo sapiens, UniProt Q9HBX9)",
    "category.label": "Yes"
  },
  {
    "molecule": "O=C(N[C@@H]1C2CCC(/C2=C/C(F)(F)F)[C@@H]1C(=O)Nc1ccc(F)c(C(F)(F)F)c1)c1cnc2ccc(Cl)cc2c1 (some centres unmarked)",
    "target.under.test": "human RXFP1 (Homo sapiens, UniProt Q9HBX9)",
    "category.label": "No"
  },
  {
    "molecule": "O=C(N[C@@H]1C2CCC(/C2=C/C(F)(F)F)[C@@H]1C(=O)Nc1ccc(F)c(C(F)(F)F)c1)c1cc(Br)cc2c1OCC2 (some centres unmarked)",
    "target.under.test": "human RXFP1 (Homo sapiens, UniProt Q9HBX9)",
    "category.label": "No"
  },
  {
    "molecule": "COc1ncccc1C(=O)N[C@@H]1C2CCC(C2=C(C)C)[C@@H]1C(=O)Nc1ccc(F)c(C(F)(F)F)c1 (some centres unmarked)",
    "target.under.test": "human RXFP1 (Homo sapiens, UniProt Q9HBX9)",
    "category.label": "No"
  },
  {
    "molecule": "COc1ncc(C2=NOC3CC(C(C)O)CC23)cc1C(=O)N[C@H]1[C@@H](C(=O)N[C@H](C)C2(C)CC2)[C@H]2CC[C@@H]1/C2=C\\C1CC1 (some centres unmarked)",
    "target.under.test": "human RXFP1 (Homo sapiens, UniProt Q9HBX9)",
    "category.label": "Yes"
  },
  {
    "molecule": "CC(C)=C1C2CCC1[C@H](C(=O)Nc1ccc(F)c(C(F)(F)F)c1)[C@@H]2NC(=O)c1cc(C#N)ccn1 (some centres unmarked)",
    "target.under.test": "human RXFP1 (Homo sapiens, UniProt Q9HBX9)",
    "category.label": "No"
  },
  {
    "molecule": "COc1ncc(C2=NOC3COCC23)cc1C(=O)N[C@H]1[C@@H](C(=O)Nc2ccc(F)c(C(F)(F)F)c2)[C@H]2CC[C@@H]1/C2=C\\C1CC1 (single isomer, unassigned) [Example 60]",
    "target.under.test": "human RXFP1 (Homo sapiens, UniProt Q9HBX9)",
    "category.label": "No"
  }
]

Prompt: For this molecule, is measured pEC50 7 or higher? COc1nn(-c2cccc(C(=O)O)c2)cc1C(=O)N[C@@H]1C2CCC(/C2=C/c2ccccc2)[C@@H]1C(=O)Nc1ccc(F)c(C(F)(F)F)c1 (some centres unmarked)
Completion: No

Prompt: Can you handle COc1ncc(C2=NOC3CC(CO)CC23)cc1C(=O)N[C@H]1[C@@H](C(=O)Nc2ccc(F)c(C(F)(F)F)c2)[C@H]2CC[C@@H]1/C2=C\C1CCCC1 (some centres unmarked) [Example 123] next?
Completion: Yes

Prompt: How about this molecule: COc1ncc(C(=O)N2CC(S(C)(=O)=O)C2)cc1C(=O)N[C@H]1[C@@H](C(=O)N[C@H](C)C2(C)CC2)[C@H]2CC[C@@H]1/C2=C\C1CC1
Completion: Yes
